The reported numbers originate from PubChem BioAssay (NCI).

System: LOX IMVI melanoma
Experiment: NCI tumour cell line growth inhibition, 48 h
experimentalReadout: TGI

API: value(readout=TGI, system=LOX IMVI melanoma) for record N#Cc1c(-c2ccco2)c2c(n(C3OC(CO)C(O)C(O)C3O)c1=S)CCCC2 (centres undefined)
> 100 µM

Okay, here is my list. What is TGI for each of these?
1. O=S(=O)(O)c1cc(Cl)c(O)c2ncc(Cl)cc12
2. O=c1/c(=C/c2cccc3ccccc23)sc2nc3ccccc3n12
3. CN(C(=O)c1ccc(F)cc1C(F)(F)F)C1CCN(c2nnc(-c3ccnn3C)c3ccccc23)CC1
4. CC1=CC[C@@H]2[C@@H](CC[C@@]2(C)O)C(C)(C)[C@H]1CC[C@@H]1[C@@]2(C)CCC(=O)C(C)(C)O[C@@H]2CC[C@]1(C)O
5. COC1=CC(c2ccc[nH]2)=N/C1=C\c1[nH]c(C)c(C(=O)CCC(=O)Oc2ccc3c(c2)CCC2C3CC[C@]3(C)C(=O)CC[C@@H]23)c1C (some centres undefined)
6. Nc1c(Br)cc(-c2cc(Br)c(N)c(Br)c2)cc1Br
7. Cc1ccc(S(=O)(=O)N(C)C)cc1[N+](=O)[O-]

["> 100 µM", "> 100 µM", "> 100 µM", "33.3 µM", "3.35 µM", "> 100 µM", "> 100 µM"]

Fill in the recorded TGI for this compound, with LOX IMVI melanoma as test system: COc1cc2c(cc1OC)C1c3ccccc3C(C#N)(C2)N(C(=O)c2ccccc2)C1O (centres undefined)
> 100 µM

====

Test system: MOLT-4 leukemia
Assay: NCI tumour cell line growth inhibition, 48 h
experimentalReadout: GI50

These recorded examples may help you get a feel for the data.
Param readout = GI50; param system = MOLT-4 leukemia; param query = O=C1Nc2ccc(F)c3c(OCCO)cc(-c4ccc[nH]4)c1c23 ; response: value
1.21 µM

Next: COc1ccc(C(CC(=O)c2ccccc2)C(C(=O)c2ccccc2)C(c2ccc(OC)cc2)C2C(=O)NC(=O)NC2=O)cc1 (stereo not given)
60.7 µM

Please answer likewise for COC1/C=C/O[C@@]2(C)Oc3c(C)c(O)c4c(O)c(cc(O)c4c3C2=O)NC(=O)/C(C)=C\C=C\[C@H](C)C(O)[C@@H](C)[C@@H](O)[C@@H](C)[C@H](OC(C)=O)[C@@H]1C (stereo not given in full)
7.42 µM

Another compound to check: COCCNCC(O)Cn1c2ccc(Cl)cc2c2cc(Cl)ccc21 (stereo not given)
1.97 µM

Please do the same for COc1ccc(C2C3=C(NC(=O)C2C#N)c2ccc4ccccc4c2OCC3)cc1 (stereo not given) as well.
> 100 µM

Please supply GI50 for each of the following items, keeping them in order.
1. Brc1c[n+](Cc2ccc3ccccc3c2)cn1Cc1ccc2ccccc2c1
2. O=C(Cn1ccnc1[N+](=O)[O-])N(CCO)CCO
3. COc1cc(-c2c3c(cn2S(=O)(=O)c2ccccc2)-c2nc(N)sc2CC3)cc(OC)c1OC

["1.79 µM", "> 1250 µM", "0.701 µM"]

Count: 2. Required value per item: GI50.
1. [Cu+2].[Cu+2].[O-]c1ccccc1C=Nc1ccccc1[O-].[O-]c1ccccc1C=Nc1ccccc1[O-]
2. Cn1ncc2c(Nc3ccc(Br)cc3)nc(Nc3ccc(Br)cc3)nc21

2.99 µM
0.346 µM
